Attribution: patent US20120214862A1

system: human Factor 7 mRNA; assay: Inhibition of human Factor 7 mRNA by 2-10-2 MOE shortmers in HepB3 cells, electroporation, 1,000 nM; assay type: cell-based; conditions: electroporation, 1,000 nM oligonucleotide, approximately 24 hours, relative to untreated control cells
In the oligonucleotide strings, read from the 5' end, every base follows the letter of its sugar. An asterisk marks phosphorothioate; unmarked linkages are phosphodiester. Other units and linkages are bracketed, terminal groups are in braces. A string of capitals states the bases alone. e = 2'-O-(2-methoxyethyl) (MOE); [5mC] = 5-methylcytosine; d = 2'-deoxy (DNA)
readout_kind: % inhibition of human Factor 7 mRNA (%)
Numeric answer only, unit % assumed.

Please indicate % inhibition of human Factor 7 mRNA recorded for 435691 (antisense e[5mC]*eA*dG*d[5mC]*d[5mC]*dG*d[5mC]*dT*dG*dA*d[5mC]*d[5mC]*eA*eA) [compound 435691]
25

For 435824 (antisense e[5mC]*e[5mC]*dT*dA*dA*dA*dG*dA*dT*dG*dA*dA*eT*e[5mC]) [compound 435824] , write its % inhibition of human Factor 7 mRNA.
21

Query % inhibition of human Factor 7 mRNA for 435837 (antisense e[5mC]*eT*d[5mC]*dG*d[5mC]*d[5mC]*dT*dG*dG*dA*dA*dG*eG*eA) [compound 435837]
37

Input 435715 (antisense e[5mC]*eA*dG*d[5mC]*d[5mC]*dA*d[5mC]*dT*d[5mC]*dG*dA*dT*eG*eT) [compound 435715] , output reported % inhibition of human Factor 7 mRNA.
35

Answer with the recorded % inhibition of human Factor 7 mRNA for the substance listed here: 435636 (antisense eG*eA*dG*dA*d[5mC]*d[5mC]*dA*dT*dG*dA*dT*dG*eA*eA) [compound 435636]
13

Give % inhibition of human Factor 7 mRNA for 435685 (antisense eA*eG*dG*dA*d[5mC]*d[5mC]*dA*d[5mC]*dG*dG*dG*d[5mC]*eT*eG) [compound 435685]
40
